Biological target: MSH2 del2-7;MSH6 WT (MutSα) (human;human, UniProt P43246;P52701 1-934;1-1360, del2-7|)
Experiment: SPR
pKd: −log10 of the molar value.

binder: 21 bp GT mismatch (SPR) (dsDNA) DNA 1: TTTTTTTTTTTTTTTTTTTTAGTCGCCAGGGACCAGTGTCA DNA 2: TGACACTGGTCTCTGGCGACT
pKd: 8.48
